Item-by-item account of Number of Thy 1.2+ cells per mm^2 of epidermis, Mean
Tested on: Thy 1.2+ thymocytes of the epidermis
Assay: Thy 1.2+ epidermal cell density after topical application to mouse ear (immunofluorescence)
Format: in vivo, C57-BL/6 mice
Details: dose 0.50 Nanog., C 57 BL/6 mice, 4 batches
Where no end group is shown, it is not given here.
Answer format reminder: number followed by unit.

Observe how each entry below is paired with its result.
A-Pyr-Ala-Lys-Ser-Gln-Gly-Gly-Ser-Asn-NH2 (AKSQGGSN; not fully specified (N-terminus, C-terminus); printed as A-Pyr-Ala-Lys-Ser-Gln-Gly-Gly-Ser-Asn-NH2) [ETF-I, A of the tested sample not restated]; 206.50 cells per mm^2
A-Arg-Lys-Asp-Val-Tyr-NH2 (RKDVY; not fully specified (N-terminus, C-terminus)) [ETF-XV, A not specified for the tested sample; b149 names acetic acid-Arg-Lys-Asp-Val-Tyr-NH2]; 175.00 cells per mm^2
Adipoyl-Ala-Lys-Ser-Gln-Gly-Gly-Ser-Asn-NH2 (AKSQGGSN-NH2; not fully specified (N-terminus)) [ETF-III, A of the tested sample not restated]; 196.25 cells per mm^2

Now for a further substance.
Could you please provide reported Number of Thy 1.2+ cells per mm^2 of epidermis, Mean for A-Arg-Lys-Asp-Val-NH2 (RKDV; not fully specified (N-terminus, C-terminus)) [ETF-XIX, A not specified for the tested sample] ? Thanks! 219.75 cells per mm^2

Values from patent US6211155A
